- System: NOMO1
- measurement.protocol: cell viability relative to DMSO control; higher = less cytotoxic
- assay.setup: HPLM + 10% dialyzed FBS; 48 h; 0.0211 µM
experimental.readout: cell viability (%)
Please give a number only; it is taken to be in %.

Here are 3 molecules together with their reported answers.
| structure.notation | target.or.test.system | reported.value |
| --- | --- | --- |
| Cn1c(Nc2ccc(C(F)(F)F)cc2)nc2cc(Oc3ccnc(-c4nc(C(F)(F)F)c[nH]4)c3)ccc21 | NOMO1 | 125 |
| Cc1c(Cn2c(C)nc3c(C(=O)O)cc(N4CCOCC4)cc32)cccc1C(F)(F)F | NOMO1 | 125 |
| Clc1cc(Cl)cc(CNc2ncncc2-c2ccc3c(c2)OCO3)c1 | NOMO1 | 94.1 |

Turning now to a further record.
Query: Input Cc1cc(Nc2nc(N[C@@H](C)c3ncc(F)cn3)ncc2Cl)n[nH]1 , output reported cell viability.
Reply: 124

The reported numbers originate from the supplement of paper PMC11451515.
